Attribution: patent US11931431B2

molecular target: PSMA (Homo sapiens, UniProt Q04609); test: Measurement of binding capacity: competition with [^125I]30 on 22RV1 cells; design: host or cells: 22RV1 human prostate cancer cells; conditions: 22RV1 cells, [^125I]30 0.1 nM, 37° C., 2 hours; read-out: Ki value
Sequence (Q04609 whole entry): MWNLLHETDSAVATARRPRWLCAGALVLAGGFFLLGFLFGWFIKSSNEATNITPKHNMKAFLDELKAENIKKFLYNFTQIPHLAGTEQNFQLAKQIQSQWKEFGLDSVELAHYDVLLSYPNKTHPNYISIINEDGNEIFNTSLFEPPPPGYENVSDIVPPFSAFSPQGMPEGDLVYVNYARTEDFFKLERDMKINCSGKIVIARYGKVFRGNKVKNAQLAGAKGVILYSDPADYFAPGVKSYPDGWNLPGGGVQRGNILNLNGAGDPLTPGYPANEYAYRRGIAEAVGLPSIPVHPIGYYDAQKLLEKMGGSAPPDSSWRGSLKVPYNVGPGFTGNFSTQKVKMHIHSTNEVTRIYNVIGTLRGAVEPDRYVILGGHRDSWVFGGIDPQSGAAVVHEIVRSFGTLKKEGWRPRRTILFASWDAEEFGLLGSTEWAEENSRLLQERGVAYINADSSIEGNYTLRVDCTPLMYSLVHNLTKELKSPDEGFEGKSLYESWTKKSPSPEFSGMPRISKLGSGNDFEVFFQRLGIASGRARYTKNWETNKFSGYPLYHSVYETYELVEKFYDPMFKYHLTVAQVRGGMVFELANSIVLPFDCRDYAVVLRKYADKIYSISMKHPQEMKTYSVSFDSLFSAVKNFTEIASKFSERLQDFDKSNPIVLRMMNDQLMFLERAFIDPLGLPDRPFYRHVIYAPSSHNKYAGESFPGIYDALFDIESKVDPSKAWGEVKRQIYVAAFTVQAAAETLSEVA
Response field label takes Condition met when Ki is strictly below 30 nM and Condition not met in all other cases.

The following compounds have reported results that may help.
• Cc1ccc(CCCC(=O)NCCCC[C@H](NC(=O)CN2CCN3CCN4CCN(CC2)CC(=O)[O][Ga]([O]C(=O)C3)[O]C(=O)C4)C(=O)NCCOCCOCC(=O)N(CCCC[C@H](NC(=O)N[C@@H](CCC(=O)O)C(=O)O)C(=O)O)CC(=O)O)cc1 = Condition met
• O=C(O)CC[C@H](NC(=O)N[C@@H](CCC(=O)N(CCOCCOCCNC(=O)CN1CCN2CCN3CCN(CC1)CC(=O)[O][Ga]([O]C(=O)C2)[O]C(=O)C3)CC(=O)O)C(=O)O)C(=O)O = Condition not met
• O=C(O)CCC(NC(=O)NC(CCC(=O)N(CC(=O)O)Cc1cn(CCOCCNC(=O)CN2CCN3CCN4CCN(CC2)CC(=O)[O][Ga]([O]C(=O)C3)[O]C(=O)C4)nn1)C(=O)O)C(=O)O (centres unmarked) = Condition not met
• O=C(O)CC[C@H](NC(=O)N[C@@H](CCCCN(CC(=O)O)C(=O)CCc1cn(CCOCCNC(=O)CN2CCN3CCN4CCN(CC2)CC(=O)[O][Ga]([O]C(=O)C3)[O]C(=O)C4)nn1)C(=O)O)C(=O)O = Condition met

Please examine the following record next.
Q: Check if Ki falls below 30 nM for `O=C(O)CC[C@H](NC(=O)N[C@@H](CCCCN(CCC(=O)O)C(=O)CCc1cn(CCOCCNC(=O)CN2CCN3CCN4CCN(CC2)CC(=O)[O][Ga]([O]C(=O)C3)[O]C(=O)C4)nn1)C(=O)O)C(=O)O` .
A: Condition met

* * *

intake of mouse organ: Bladder overview
test system: PSMA^+ PC-3 PIP tumors; experiment: MicroPET/CT imaging of mice transplanted with prostate cancer cell lines; assay type: in vivo, nude mouse; details: 60 min after injection

Field intake of mouse organ: Bladder (entry O=C(O)CCC(NC(=O)NC(CCCCN(CC(=O)O)C(=O)COCCOCCNC(=O)CN1CCN2CCN3CCN(CC1)CC(=O)[O][68Ga]([O]C(=O)C2)[O]C(=O)C3)C(=O)O)C(=O)O (stereo not shown) [[^68Ga]1e] ) reads 67.80 ± 8.56 % ID/g

Field intake of mouse organ: Bladder (entry O=C(O)CCC(NC(=O)NC(CCCCN(CC(=O)O)C(=O)COCCOCCNC(=O)C(CCCCNC(=O)CCCc1ccc(I)cc1)NC(=O)CN1CCN2CCN3CCN(CC1)CC(=O)[O][68Ga]([O]C(=O)C2)[O]C(=O)C3)C(=O)O)C(=O)O (stereo not shown) [[^68Ga]1h] ) reads 12.62 ± 5.31 % ID/g

Field intake of mouse organ: Bladder (entry O=C(O)CCC(NC(=O)NC(CCCCN(CC(=O)O)C(=O)COCCNC(=O)C(CCCCNC(=O)CCCc1ccc(I)cc1)NC(=O)CN1CCN2CCN3CCN(CC1)CC(=O)[O][68Ga]([O]C(=O)C2)[O]C(=O)C3)C(=O)O)C(=O)O (stereo not shown) [[^68Ga]1k] ) reads 4.81 ± 0.24 % ID/g

Field intake of mouse organ: Bladder (entry Cc1ccc(CCCC(=O)NCCCCC(NC(=O)CN2CCN3CCN4CCN(CC2)CC(=O)[O][68Ga]([O]C(=O)C3)[O]C(=O)C4)C(=O)NCCOCCOCC(=O)N(CCCCC(NC(=O)NC(CCC(=O)O)C(=O)O)C(=O)O)CC(=O)O)cc1 (stereo not shown) [[^68Ga]1g] ) reads 24.74 ± 11.23 % ID/g
